# Test details: Saturated solubility (Cs) measured to establish sink conditions
# Format: physicochemical
# Settings: aqueous buffer, thermodynamic from solid; phosphate buffer pH 7.4; read-out: Cs (saturated solubility)

{"columns": ["Sample smiles", "solubility / µg/mL"],
 "data": [
  ["COc1ccc([C@@H]2Sc3ccccc3N(CCN(C)C)C(=O)[C@@H]2OC(C)=O)cc1", 2390]
]}

* * *

# Test details: Saturated solubility (Cs) measured to establish sink conditions
# Assay type: physicochemical
# Settings: pH 1.2; read-out: Cs (saturated solubility)

{"columns": ["Compound", "solubility"],
 "data": [
  ["COc1ccc([C@@H]2Sc3ccccc3N(CCN(C)C)C(=O)[C@@H]2OC(C)=O)cc1 [Diltiazem HCI]", "> 1000 mg/mL"]
]}
